Origin of measurements: patent US11571423B2

Parameter: pEC50. Scope: all listed entries.
- target_of_assay: hSTING(HAQ) (Homo sapiens, UniProt Q86WV6, G230A/H232R/R293Q/R71H)
- Sequence (Q86WV6 whole entry R71H/G230A/H232R/R293Q): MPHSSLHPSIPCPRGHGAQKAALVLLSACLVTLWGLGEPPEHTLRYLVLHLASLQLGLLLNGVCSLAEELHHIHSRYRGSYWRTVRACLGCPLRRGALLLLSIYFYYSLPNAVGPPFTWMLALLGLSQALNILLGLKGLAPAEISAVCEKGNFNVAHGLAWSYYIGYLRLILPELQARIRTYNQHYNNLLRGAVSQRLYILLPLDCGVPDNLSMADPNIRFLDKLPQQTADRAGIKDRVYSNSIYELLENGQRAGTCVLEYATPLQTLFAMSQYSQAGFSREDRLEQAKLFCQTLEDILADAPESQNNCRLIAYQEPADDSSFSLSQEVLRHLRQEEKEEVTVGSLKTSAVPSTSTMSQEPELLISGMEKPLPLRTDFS
- assay_name: Luciferase reporter assay in HEK293T-hSTING-Luciferase cells, HAQ polymorph
- test_settings: HAQ polymorph of human STING, EC50 range class
- From the text: Stable Cell Line Generation • a) Stable STING expressing cells—Stable HEK293T STING-expressing cell lines were generated using plasmids purchased from Invivogen, CA, USA, that contain STING cDNA cloned into the pUNO-1 vector under hEF1-HTLV promoter and containing the Blasticidin selection cassette. […]
pEC50: −log10 of the molar value.

[[record]]
sample_smiles = "C[C@H]1c2ccc(C(=O)NCc3c(F)cc(F)cc3F)cc2N(Cc2c(F)cc(O)cc2F)C(=O)N1C"
recorded_value = "> 6.00"

[[record]]
sample_smiles = "C[C@H]1c2ccc(C(=O)NCc3c(F)cc(F)cc3F)cc2N(Cc2c(F)ccc(OCCO)c2Cl)C(=O)N1C"
recorded_value = "> 6.00"


Task: Using the record for "Cc1nccc(CN2C(=O)N(C)[C@@H](C)c3ccc(C(=O)NCc4c(F)cc(F)cc4F)cc32)c1F" , report its pEC50.
Result: > 6.00

Task: Any idea what pEC50 was measured for "C[C@H]1c2ccc(C(=O)NCc3c(F)cc(F)cc3F)cc2N(Cc2c(N)cccc2F)C(=O)N1C" ?
Result: > 6.00
